PROTOCOL DETAILS: Drug loading of liposomal versus 10% P123 formulations
Format: physicochemical
SETUP CONDITIONS: Pluronic P123 10% weight/volume; prepared at 2 mg/ml
TEST READOUT: Drug loading, P123 (mg/mL)

[
  {
    "COMPOUND": "C=Cc1c(C)c2cc3nc(cc4[nH]c(cc5nc(cc1[nH]2)C1(C)C5=CC=C(C(=O)OC)C1C(=O)OC)c(C)c4CCC(=O)OCCO)C(CCC(=O)OCCO)=C3C (stereo not shown)",
    "TEST READOUT": "Drug loading, P123",
    "VALUE UNIT": "mg/mL",
    "MEASURED NUMBER": 0.37
  },
  {
    "COMPOUND": "C=Cc1c(C)c2cc3nc(cc4[nH]c(cc5nc(cc1[nH]2)C(C)=C5CCC(=O)OC)c(CCC(=O)OC)c4C)C1(C)C3=CC=C(C(=O)O)C1C(=O)OC (stereo not shown)",
    "TEST READOUT": "Drug loading, P123",
    "VALUE UNIT": "mg/mL",
    "MEASURED NUMBER": 1.33
  },
  {
    "COMPOUND": "C=Cc1c(C)c2cc3nc(cc4[nH]c(cc5nc(cc1[nH]2)C(C)=C5CCC(=O)OCCO)c(CCC(=O)OCCO)c4C)C1(C)C3=CC=C(C(=O)OC)C1C(=O)OC (stereo not shown)",
    "TEST READOUT": "Drug loading, P123",
    "VALUE UNIT": "mg/mL",
    "MEASURED NUMBER": 1.82
  },
  {
    "COMPOUND": "C=Cc1c(C)c2cc3nc(cc4[nH]c(cc5nc(cc1[nH]2)C1(C)C5=CC=C(C(=O)O)C1C(=O)OC)c(C)c4CCC(=O)OC)C(CCC(=O)OC)=C3C (stereo not shown)",
    "TEST READOUT": "Drug loading, P123",
    "VALUE UNIT": "mg/mL",
    "MEASURED NUMBER": 1.24
  }
]

* * *

PROTOCOL DETAILS: Drug loading of liposomal versus 10% P123 formulations
Format: physicochemical
SETUP CONDITIONS: liposomal formulation; prepared at 2 mg/ml
Listed here are molecules together with their documented Drug loading, Liposome.
TEST READOUT: Drug loading, Liposome

[
  {
    "MOLECULE": "C=Cc1c(C)c2cc3nc(cc4[nH]c(cc5nc(cc1[nH]2)C(C)=C5CCC(=O)OCCO)c(CCC(=O)OCCO)c4C)C1(C)C3=CC=C(C(=O)OC)C1C(=O)OC (stereo not shown)",
    "RESULT": "0.98 mg/mL"
  },
  {
    "MOLECULE": "C=Cc1c(C)c2cc3nc(cc4[nH]c(cc5nc(cc1[nH]2)C1(C)C5=CC=C(C(=O)OC)C1C(=O)OC)c(C)c4CCC(=O)OCCO)C(CCC(=O)OCCO)=C3C (stereo not shown)",
    "RESULT": "0.06 mg/mL"
  },
  {
    "MOLECULE": "C=Cc1c(C)c2cc3nc(cc4[nH]c(cc5nc(cc1[nH]2)C(C)=C5CCC(=O)OC)c(CCC(=O)OC)c4C)C1(C)C3=CC=C(C(=O)O)C1C(=O)OC (stereo not shown)",
    "RESULT": "1.84 mg/mL"
  }
]
